Consider the following compounds; for each one, report its TGI.
Tested on: OVCAR-5 ovarian
test_description: NCI tumour cell line growth inhibition, 48 h

Challenge: Reported TGI for COC(=O)C(=O)C(/C(=N/N)C(=O)Nc1ccccc1C(N)=O)c1nc2ccc([N+](=O)[O-])cc2[nH]c1=O (stereo unspecified) : what is it?
Response given: > 100 µM

Challenge: Reported TGI for C=C1CC2(CCS(=O)(=O)c3ccccc32)OC1=O (stereo unspecified) : what is it?
Response given: 27.3 µM

Challenge: Reported TGI for CCC1(c2ccc(N)cc2)CCC(=O)NC1=O (stereo unspecified) : what is it?
Response given: > 5000 µM

Challenge: Reported TGI for Cn1cc(C2=C(c3cn(CCCCCO)c4ccccc34)C(=O)NC2=O)c2ccccc21 : what is it?
Response given: > 25 µM

Challenge: Reported TGI for C=CC(=O)N1CC[C@H](n2nc(C#Cc3cc(OC)cc(OC)c3)c3c(N)ncnc32)C1 : what is it?
Response given: > 100 µM

Challenge: Reported TGI for CCN(CC)Cc1cc(Nc2ccnc3ccc4nn(C)nc4c23)ccc1O : what is it?
Response given: 35.7 µM

Challenge: Reported TGI for C=CC1(c2ccc3ccccc3c2)OCC(CC)O1 (stereo unspecified) : what is it?
Response given: > 100 µM

Challenge: Reported TGI for CC/C=C\C[C@H](O)C/C=C1/C(=O)C=C[C@@H]1C/C=C\CCCCO : what is it?
Response given: 8.95 µM

Kindly give each listed record's TGI.
1. CC(C)Cn1cnc2c(Cl)nc3ccccc3c21
2. CNC(=O)c1cccc(C#Cc2cncnc2Nc2ccc(OCc3cccc(F)c3)c(Cl)c2)c1
3. COc1ccccc1NC(=O)CC(=O)N1N=C(c2ccccc2)C(N=Nc2ccc(Cl)cc2)C1=O (stereo unspecified)

Response given:
1: > 100 µM; 2: > 25 µM; 3: > 100 µM

* * *

Consider the following molecules; for each one, report its TGI.
Tested on: COLO 205 colon
test_description: NCI tumour cell line growth inhibition, 48 h
Give bare numbers, in µM.

Use these answered entries as a reference point.
Challenge: Reported TGI for CC(=O)NC1COC(COC(=O)CCCCCCCCCCNC(=O)c2ccc([N+](=O)[O-])c3c(=O)c4ccccc4[nH]c23)C(O)C1OC(C)C(=O)NC(C(=O)NC(CCC(N)=O)C(=O)OCc1ccccc1)C(C)C (stereo not drawn) : what is it?
Response given: 41.2

Challenge: Reported TGI for COc1cc(O)c2c(c1)C(=O)C1=C(C2=O)C(O)C[C@@](C)(O)C1 (stereo partly drawn) : what is it?
Response given: 0.844

Challenge: Reported TGI for O=C(CC1(O)C(=O)Nc2c(Cl)cc(Cl)cc21)c1ccc(F)cc1 (stereo not drawn) : what is it?
Response given: 43

Challenge: Reported TGI for CCNCCNc1cc(-c2ccc(C(F)(F)F)cc2)c(C#N)c2nc3cc(Cl)c(Cl)cc3n12 : what is it?
Response given: 3.22

Challenge: Reported TGI for C(#CC1(Nc2ccccc2)CCN(Cc2ccccc2)CC1)C1(Nc2ccccc2)CCN(Cc2ccccc2)CC1 : what is it?
Response given: 3.5

Challenge: Reported TGI for C=C1C(=O)O[C@H]2[C@H]1CC/C(CNC(=O)/C=C/c1ccccc1F)=C\CC[C@@]1(C)O[C@@H]21 : what is it?
Response given: 2.96

Challenge: Reported TGI for CCOC(=O)CN(c1ccccc1)c1nc(=[N+](C)C)ss1 : what is it?
Response given: 15.4

Challenge: Reported TGI for CCCC[C@H]1C(=O)O[C@H](C)[C@H](NC(=O)c2cccc(NC=O)c2OC)C(=O)O[C@@H](C)[C@@H]1OC(=O)CC(C)C (tested in a mixture with another compound) : what is it?
Response given: 27.1

We now examine a further molecule.
Challenge: Reported TGI for C=C1CC2(CCS(=O)(=O)c3ccccc32)OC1=O (stereo not drawn) : what is it?
Response given: 9.33
